# tested.on: furin, P09958
# Sequence (P09958 whole entry): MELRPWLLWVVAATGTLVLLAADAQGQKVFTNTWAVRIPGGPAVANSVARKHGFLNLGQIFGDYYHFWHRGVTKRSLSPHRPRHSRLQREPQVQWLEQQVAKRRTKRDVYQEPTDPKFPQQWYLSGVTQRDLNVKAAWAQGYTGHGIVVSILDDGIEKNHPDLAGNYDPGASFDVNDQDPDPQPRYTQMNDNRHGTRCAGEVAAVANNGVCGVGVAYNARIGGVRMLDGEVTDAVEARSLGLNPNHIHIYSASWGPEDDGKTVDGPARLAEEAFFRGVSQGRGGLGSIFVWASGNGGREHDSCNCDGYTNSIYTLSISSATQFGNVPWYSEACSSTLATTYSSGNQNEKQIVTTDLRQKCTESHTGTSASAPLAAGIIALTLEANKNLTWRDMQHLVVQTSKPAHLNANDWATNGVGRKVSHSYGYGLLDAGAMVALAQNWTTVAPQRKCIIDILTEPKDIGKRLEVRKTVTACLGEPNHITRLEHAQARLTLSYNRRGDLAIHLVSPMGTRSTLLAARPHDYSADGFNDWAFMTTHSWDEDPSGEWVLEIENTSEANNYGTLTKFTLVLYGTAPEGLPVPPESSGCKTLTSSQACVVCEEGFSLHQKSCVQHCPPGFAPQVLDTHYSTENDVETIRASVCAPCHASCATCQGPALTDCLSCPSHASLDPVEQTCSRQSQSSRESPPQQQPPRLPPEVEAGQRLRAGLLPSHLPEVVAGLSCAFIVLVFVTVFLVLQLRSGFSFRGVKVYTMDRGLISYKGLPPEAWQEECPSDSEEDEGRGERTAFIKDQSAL
# measurement.description: furin cleavage Z-score vs untreated control; higher = more cleavage, active = 3.5 or more, inactive = 1 or less, 8 variable residues between constant flanks;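 further: purified furin at 1:10 enzyme:substrate in 50 mM HEPES pH 7.5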
# cond: 7.5 min
Some of the results follow. The true hit rate is not given.
Can you answer with just one of these options? y (active), n (inactive)

IN: Status in this test for CARNKRNSKMAGNASASA [FS-2397] ?
OUT: y

IN: Status in this test for CARNKRNSKMAGNASASA [FU4] ?
OUT: y

IN: Status in this test for CARAPRSVGGAGNASASA [FS-1886] ?
OUT: n

IN: Status in this test for CARAKRAVSHAGNASASA [FS-2544] ?
OUT: y

These data points were gathered from the supplement of paper PMC3545927.
